Test system: P. falciparum 3D7 trophozoites
method: Metabolomic fingerprint profiling LC-MS
Type: cell-based, Plasmodium falciparum
run-conditions: metabolite D-sedoheptulose-1/7-phosphate; S2 Table Metabolomics, change in metabolite level after compound treatment
endpoint-label: D-sedoheptulose-1/7-phosphate
// return just the number, without any unit appended

Worked examples, 8 molecules total:
{"columns": ["molecule", "D-sedoheptulose-1/7-phosphate"],
 "data": [
  ["COc1ccc2c(c1)OC(O)(C(F)(F)C(F)(F)F)CC2=O (stereo not shown)", -0.1553],
  ["CCOC(=O)c1cn(CC)c2cc(N3CCCCC3)c(F)cc2c1=O", 0.4202],
  ["COc1cccc(C=Cc2nc(=O)c3ccccc3o2)c1OC", 0.3935],
  ["CCN(CC)CCNc1ncnc2c1[nH]c1ccc(Cl)cc12", 0.02906],
  ["CCCN(CCC)CC(O)COc1ccccc1C(=O)Nc1ccccc1 (stereo not shown)", 0.2206],
  ["Cc1cc(C)cc(Nc2cc(C)nc3nc(C(F)(F)F)nn23)c1", 0.2305],
  ["COc1ccc(Br)cc1C1Nc2ccc3ccccc3c2C2=C1C(=O)CC(c1ccccc1)C2 (stereo not shown)", -0.3333],
  ["COc1ccccc1CNC(=O)CCn1c(=O)[nH]c2ccccc2c1=O", 0.1783]
]}

## Task I am curious: what D-sedoheptulose-1/7-phosphate value has been reported for CCCc1cc(O)c2c3c(c(=O)oc2c1)CN(C)CC3 ?
## Result -0.0969

## Task What measured D-sedoheptulose-1/7-phosphate goes with CCC(c1ccccc1)c1nn2c(-c3cccs3)nnc2s1 (stereo not shown) ?
## Result 0.09562
